src = ChEMBL document CHEMBL3039007

# targetDesc: UniProtKB Q9NPD5
# Sequence (Q9NPD5 whole entry): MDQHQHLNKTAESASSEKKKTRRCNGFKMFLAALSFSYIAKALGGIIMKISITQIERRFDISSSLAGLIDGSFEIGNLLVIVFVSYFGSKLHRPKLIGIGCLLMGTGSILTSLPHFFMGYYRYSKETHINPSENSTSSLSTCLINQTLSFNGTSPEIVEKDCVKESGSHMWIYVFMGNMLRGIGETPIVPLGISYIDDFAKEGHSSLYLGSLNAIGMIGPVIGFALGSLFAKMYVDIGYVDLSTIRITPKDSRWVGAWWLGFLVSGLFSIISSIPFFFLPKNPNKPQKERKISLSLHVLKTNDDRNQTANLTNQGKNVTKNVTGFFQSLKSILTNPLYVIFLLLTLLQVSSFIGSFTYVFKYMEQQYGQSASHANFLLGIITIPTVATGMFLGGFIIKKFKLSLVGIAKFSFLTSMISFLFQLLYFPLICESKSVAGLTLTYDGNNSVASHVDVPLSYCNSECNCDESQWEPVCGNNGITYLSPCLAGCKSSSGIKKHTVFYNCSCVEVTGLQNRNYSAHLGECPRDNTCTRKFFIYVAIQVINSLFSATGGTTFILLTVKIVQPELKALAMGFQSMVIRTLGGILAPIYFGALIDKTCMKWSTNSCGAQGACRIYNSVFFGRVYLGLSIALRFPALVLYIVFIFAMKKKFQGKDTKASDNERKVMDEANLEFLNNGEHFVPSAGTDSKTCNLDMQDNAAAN
# conditionSummary: chinese hamster, cho, 10 µM
measureName: residual activity (%)
Numbers only, in %.

Solved cases below.
C[C@]12CC[C@@H]3c4ccc(O)cc4CC[C@H]3[C@@H]1CC[C@@H]2O = 131.9
O[C@H]1[C@H]2c3cc4c(cc3CN3CCC(=C[C@@H]1O)[C@H]23)OCO4 = 97.14

State recorded residual activity for all listed molecules.
1. O=C(O)CCCOc1ccc(Cl)cc1Cl
2. OCC(O)CN1CCN(c2ccccc2)CC1 (stereo not given)
3. C=C1[C@@H]2CC[C@@]3(C)[C@H](c4ccoc4)OC(=O)C[C@]13O[C@H]1CC(=O)C(C)(C)[C@H](CC(=O)OC)[C@]12C [METHYLANGOLENSATE]

[A]
[112, 96.03, 33.7]
